Entry source: PubChem BioAssay

Target: Neurogenic locus notch homolog protein 2 (Homo sapiens)
Experiment: Notch2 binders on small-molecule microarrays, primary screen, biochemical, small-molecule microarray, 635 nm fluorescence, stem cell growth factors (AID 1073)
Conditions: Notch2 binding, higher = more signal
# if value of composite z-score reaches 1, tag yes; if it stays below, tag no

Check out these entries, answers already filled in.
CC(C)(C)C(=O)N[C@@H](c1ccc(Cl)cc1)[C@]1(C)C[C@H]1C1CCCCC1 | yes
COc1ccc([C@H]2C[C@H]3C(Br)=C[C@@H]2C(=O)[C@]32CO2)cc1 | no
CC(=O)NCCCC[C@@H]1NC(=O)[C@@H]2C[C@H](C(=O)NCCCCN(C)C)[C@H](c3cccc(OCCO)c3)N2C1=O | no
O=C1OCCC=C[C@H]2OC34C=CCN(CCN5CCOCC5)C(=O)[C@H]3N(CCCCCCO)C(=O)[C@@H]4C12 (some centres undefined) | no
CC(C)c1ccc(NN2C(C(O)c3cc(C(F)(F)F)cc(C(F)(F)F)c3)C=CC3C(=O)N(c4ccccc4)C(=O)C32)cc1 (centres undefined) | yes

Hello, I need to know if COCCOC(=O)N1C(=O)[C@@]2(c3cc(C#CCCO)ccc31)[C@H](c1ccc(OCCO)cc1)N1[C@H](c3ccccc3)[C@H](c3ccccc3)OC(=O)[C@H]1[C@@H]2C(=O)N1CCN(c2ncccn2)CC1 has measured composite z-score not below 1. Thanks!
yes

Note, next up: C=CCNC(=O)[C@H]1[C@@H]2C(=O)O[C@@H](c3ccccc3)[C@@H](c3ccccc3)N2[C@@H](c2ccc(OCCO)cc2)[C@]12C(=O)Nc1ccc(C#CC3=CCCCC3)cc12
yes

Note, next up: COC(=O)c1c(CC[C@@H](CO)NC(=O)N[C@@H](C)Cn2cc(C3(O)CCCCC3)nn2)oc(C(C)=O)c1C(=O)OC
yes
